The measurements presented in this section are drawn from paper PMC8892522.

Biological target: soluble epoxide hydrolase (sEH) (Homo sapiens, UniProt P34913)
Sequence (P34913 230-555): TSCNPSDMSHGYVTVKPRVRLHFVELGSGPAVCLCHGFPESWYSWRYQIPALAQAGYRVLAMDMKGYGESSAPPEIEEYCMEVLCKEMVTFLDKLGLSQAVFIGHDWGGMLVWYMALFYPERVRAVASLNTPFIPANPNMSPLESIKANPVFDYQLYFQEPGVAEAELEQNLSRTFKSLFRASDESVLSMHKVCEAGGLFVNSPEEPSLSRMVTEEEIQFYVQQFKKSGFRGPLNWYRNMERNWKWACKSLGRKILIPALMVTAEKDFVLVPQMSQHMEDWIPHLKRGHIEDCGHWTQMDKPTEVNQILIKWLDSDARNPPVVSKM
quantity.measured: pKd
Answer as the number alone; pKd is minus log10 of concentration in mol/L.

Ask: State measured pKd of the compound C=C(C)[C@H](CC=C(C)C)Cc1c(O)cc(OC)c2c1O[C@H](c1ccc(O)cc1O)CC2=O with soluble epoxide hydrolase (sEH) (Homo sapiens, UniProt P34913).
Reply: 5.84
